Tested on: MCF7 cells (breast tumor cells) WT
ASSAY_EXPLANATION: Test B: cell proliferation/viability assay (CellTiter-Glo) on MCF7 WT
Assay type: cell-based
CONDITIONS_USED: Homo sapiens, 168 h, 7 days of compound exposure
Protocol: Test B: Cell Proliferation/Viability Assay on MCF7 (Breast Tumor Cells) WT and Mutants Cell Lines Test B involves measuring the in vitro proliferation activity of the compounds of the invention by analyzing the viability of the tumor cells. The measurements of the viability were made using a breast cancer cell viability assay as described hereunder. […] The percent of viability of each sample was determined as follows: (RLU sample−RLU background/RLU untreated−RLU background)*100=% viability.

# COMPOUND, IC50 (nM)
measured = [
    ("Cc1ccc(C2=C(c3ccc(O[C@H]4CCN(CCCF)C4)cc3)c3ccc(OP(=O)(O)O)cc3SC2)c(F)c1 [Example 48]", 1),
]

###

SYSTEM_UNDER_TEST: ERα in MCF7 cells (Homo sapiens (Human), UniProt P03372)
Sequence (P03372 whole entry): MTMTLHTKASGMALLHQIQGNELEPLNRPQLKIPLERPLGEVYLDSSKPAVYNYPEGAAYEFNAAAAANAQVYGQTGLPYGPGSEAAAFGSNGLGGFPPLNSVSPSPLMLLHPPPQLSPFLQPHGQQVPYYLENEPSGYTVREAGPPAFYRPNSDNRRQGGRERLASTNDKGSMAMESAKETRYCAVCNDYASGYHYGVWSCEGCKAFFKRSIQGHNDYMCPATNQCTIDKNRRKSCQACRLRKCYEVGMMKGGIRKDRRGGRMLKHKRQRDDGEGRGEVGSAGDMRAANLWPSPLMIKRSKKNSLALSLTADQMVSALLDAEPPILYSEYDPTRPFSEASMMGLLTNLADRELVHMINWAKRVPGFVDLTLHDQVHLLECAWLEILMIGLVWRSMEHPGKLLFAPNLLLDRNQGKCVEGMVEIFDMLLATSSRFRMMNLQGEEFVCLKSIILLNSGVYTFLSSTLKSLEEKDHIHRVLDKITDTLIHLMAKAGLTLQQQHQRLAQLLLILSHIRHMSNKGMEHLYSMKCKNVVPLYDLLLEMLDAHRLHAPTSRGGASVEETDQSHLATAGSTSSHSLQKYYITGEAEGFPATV
ASSAY_EXPLANATION: Test C: estrogen receptor degradation activity, ERα in cell western assay in MCF7 cells
Format: cell-based
CONDITIONS_USED: at 3 μM, 4 hours, relative to fulvestrant
Description: Test C: Estrogen Receptor Degradation Activity Test C involves measuring the in vitro degradation activity of the compounds of the invention. […] MCF7 cells (ATCC) were seeded in 384 wells microplate (collagen coated) at concentration of >9990 cells/30 μL per well in red phenol free MEM alpha medium (invitrogen) containing 5% charcoal dextran striped FBS. […] Integrated intensities in the green fluorescence and red fluorescence were measured to determine the levels of ERα and DNA respectively.

# COMPOUND, SYSTEM_UNDER_TEST, % Degradation at 3 μM [%]
measured = [
    ("Oc1ccc2c(c1)OCCC(c1ccc3c(c1)CCN3)=C2c1ccc(O[C@H]2CCN(CCCF)C2)cc1", "ERα in MCF7 cells (Homo sapiens (Human), UniProt P03372)", 88),
    ("Cc1cc(F)ccc1C1=C(c2ccc(O[C@H]3CCN(CCCF)C3)cc2)c2ccc(O)cc2S(=O)(=O)CC1", "ERα in MCF7 cells (Homo sapiens (Human), UniProt P03372)", 90),
    ("Cc1c(O)ccc2c1OCCC(c1ccc3c(c1)CCN3)=C2c1ccc(O[C@H]2CCN(CCCF)C2)cc1", "ERα in MCF7 cells (Homo sapiens (Human), UniProt P03372)", 74),
    ("Cc1ccc(C2=C(c3ccc(O[C@H]4CCN(CCCF)C4)cc3)c3ccc(O)cc3[S+]([O-])C2)c(F)c1 (single isomer, unassigned) [Example 71]", "ERα in MCF7 cells (Homo sapiens (Human), UniProt P03372)", 75),
]

###

SYSTEM_UNDER_TEST: His6-ERα298-554 Y537S mutant (ERα ligand-binding domain) (Homo sapiens (Human), UniProt P03372, Y537S)
Sequence (P03372 298-554 Y537S): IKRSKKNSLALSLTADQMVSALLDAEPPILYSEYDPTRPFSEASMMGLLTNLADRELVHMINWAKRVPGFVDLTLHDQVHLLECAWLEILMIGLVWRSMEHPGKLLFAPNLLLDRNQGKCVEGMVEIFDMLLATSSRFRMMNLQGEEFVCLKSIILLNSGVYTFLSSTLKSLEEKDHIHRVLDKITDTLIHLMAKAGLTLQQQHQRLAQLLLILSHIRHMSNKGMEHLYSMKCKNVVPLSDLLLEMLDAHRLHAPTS
ASSAY_EXPLANATION: Test A: biochemical antagonist activity, LanthaScreen TR-FRET ERα coactivator assay, Y537S mutant
CONDITIONS_USED: asterisk (*): protocol using 10 nM estradiol; read-out: Antagonism Y537S IC50
Quick reference for IC50 among some compounds

# COMPOUND, IC50, nM
data = [
    ("O=C(O)c1ccc2c(c1)CCCC(c1ccc(OC(F)F)c(F)c1)=C2c1ccc(O[C@H]2CCN(CCCF)C2)nc1", 1920),
    ("CCOc1ccc(C2=C(c3cnc(O[C@H]4CCN(CCCF)C4)nc3)c3ccc(O)cc3CCC2)c(F)c1F", 26),
    ("Cc1ccc(C2=C(c3ccc(O[C@H]4CCN(CCCF)C4)nc3)c3ccc(O)cc3SC2)c(F)c1", 15),
    ("Oc1ccc2c(c1)SCCC(c1ccc(SC(F)(F)F)cc1)=C2c1ccc(O[C@H]2CCN(CCCF)C2)cc1", 238),
    ("[O-][S+]1CCC(c2ccc(OC(F)(F)F)cc2)=C(c2ccc(O[C@H]3CCN(CCCF)C3)cc2)c2ccc(O)cc21 (single isomer, unassigned) [Example 227]", 3500),
    ("Oc1ccc2c(c1)CCCC(c1ccc(Cl)cc1Cl)=C2c1ccc(O[C@H]2CCN(CCCF)C2)nc1", 9),
    ("Cc1ccc(C2=C(c3cnc(O[C@H]4CCN(CCCF)C4)nc3)c3ccc(O)cc3SC2)c(F)c1", 197),
    ("Nc1ccc(C2=C(c3ccc(O[C@H]4CCN(CCCF)C4)cc3)c3ccc(O)cc3SC2)c(F)n1", 108),
    ("CCOc1ccc(C2=C(c3ccc(O[C@H]4CCN(CCCF)C4)cc3)c3ccc(O)cc3SCC2)c(F)c1", 36),
]

###

SYSTEM_UNDER_TEST: ERα in MCF7 cells (Homo sapiens (Human))
ASSAY_EXPLANATION: Test C: estrogen receptor degradation activity, ERα in cell western assay in MCF7 cells
Type: cell-based
CONDITIONS_USED: 4 hours post compound addition, ERα in cell western, read-out: Degradation IC50
Here, each record is paired with measured log10 DC50 data.
READOUT_KIND: log10 DC50 (log10 of the value in nM)

# MOLECULE, SYSTEM_UNDER_TEST, log10 DC50
rows = [
    ("Cc1c(O)ccc2c1OCCC(c1ccc3c(c1)CCN3)=C2c1ccc(O[C@H]2CCN(CCCF)C2)cc1", "ERα in MCF7 cells (Homo sapiens (Human))", 2.10),
    ("CC1(C)Cc2cc(C3=C(c4ccc(O[C@H]5CCN(CCCF)C5)cc4)c4ccc(O)cc4SC3)ccc2N1", "ERα in MCF7 cells (Homo sapiens (Human))", -0.70),
    ("CC1Cc2c([nH]c3ccccc23)C(c2c(F)cc(O[C@H]3CCN(CCCF)C3)cc2F)N1CC(C)(C)F (single isomer, unassigned) [Example 256]", "ERα in MCF7 cells (Homo sapiens (Human))", -0.70),
    ("Oc1ccc2c(c1)C(c1ccc(O[C@H]3CCN(CCCF)C3)cc1)=C(c1ccc(Cl)cc1F)CCS2", "ERα in MCF7 cells (Homo sapiens (Human))", 0.48),
    ("Cc1c(Cl)cccc1C1=C(c2ccc(O[C@H]3CCN(CCCF)C3)cc2)c2ccc(O)cc2OCC1", "ERα in MCF7 cells (Homo sapiens (Human))", -0.22),
    ("CCOc1ccc(C2=C(c3ccc(O[C@H]4CCN(CCCF)C4)cc3)c3ccc(O)cc3SCC2)c(C)c1", "ERα in MCF7 cells (Homo sapiens (Human))", -0.22),
    ("CC/C(=C(/c1ccc(O[C@H]2CCN(CCCF)C2)cc1)c1ccc2[nH]ncc2c1)c1ccc(F)cc1Cl", "ERα in MCF7 cells (Homo sapiens (Human))", -0.22),
    ("CCNc1ccc(C2=C(c3ccc(O[C@H]4CCN(CCCF)C4)cc3)c3ccc(O)cc3SCC2)c(F)c1", "ERα in MCF7 cells (Homo sapiens (Human))", -0.30),
    ("CCOc1ccc(C2=C(c3ccc(O[C@H]4CCN(CCCF)C4)cc3)c3ccc(O)cc3SC2)c(F)n1", "ERα in MCF7 cells (Homo sapiens (Human))", -0.22),
    ("Oc1ccc2c(c1)SCC(c1ccc(Cl)nc1Cl)=C2c1ccc(O[C@H]2CCN(CCCF)C2)cc1", "ERα in MCF7 cells (Homo sapiens (Human))", -0.70),
    ("Oc1ccc2c(c1)CCCC(c1ccc(OC(F)(F)F)cc1)=C2c1ccc(O[C@H]2CCN(CCCF)C2)nc1", "ERα in MCF7 cells (Homo sapiens (Human))", -0.70),
    ("CCOc1ccc(C2=C(c3ccc(O[C@H]4CCN(CCCF)C4)cc3)c3ccc(O)cc3SC2)c(F)c1F", "ERα in MCF7 cells (Homo sapiens (Human))", 0.00),
    ("CCOc1ccc(C2=C(c3ccc(O[C@H]4CCN(CCCF)C4)cc3)c3ccc(O)cc3SCC2)c(F)c1", "ERα in MCF7 cells (Homo sapiens (Human))", -0.52),
    ("O=C(O)c1ccc2c(c1)CCCC(c1ccc(OC(F)F)c(F)c1)=C2c1ccc(O[C@H]2CCN(CCCF)C2)nc1", "ERα in MCF7 cells (Homo sapiens (Human))", -0.15),
    ("Cc1c(O)ccc2c1OCCC(c1cccc3[nH]ccc13)=C2c1ccc(O[C@H]2CCN(CCCF)C2)cc1", "ERα in MCF7 cells (Homo sapiens (Human))", 1.26),
    ("Oc1ccc2c(c1)OCCC(c1ccc(Cl)cc1F)=C2c1ccc(O[C@H]2CCN(CCCF)C2)cc1", "ERα in MCF7 cells (Homo sapiens (Human))", -0.30),
    ("CC(C)(C)c1ccc(C2=C(c3ccc(O[C@H]4CCN(CCCF)C4)cc3)c3ccc(O)cc3SC2)cc1", "ERα in MCF7 cells (Homo sapiens (Human))", 0.00),
    ("CC1(C)Cc2cc(C3=C(c4ccc(O[C@H]5CCN(CCCF)C5)cc4)c4ccc(O)cc4SCC3)ccc2N1", "ERα in MCF7 cells (Homo sapiens (Human))", -0.70),
    ("Oc1ccc2c(c1)C(c1ccc(O[C@H]3CCN(CCCF)C3)cc1)=C(c1ccc(SC(F)(F)F)cc1)CC2", "ERα in MCF7 cells (Homo sapiens (Human))", 1.45),
    ("Cc1ccc(C2=C(c3cnc(O[C@H]4CCN(CCCF)C4)nc3)c3ccc(O)cc3CCC2)c(F)c1", "ERα in MCF7 cells (Homo sapiens (Human))", -0.40),
    ("CCN(CC)c1ccc(C2=C(c3ccc(O[C@H]4CCN(CCCF)C4)cc3)c3ccc(O)cc3SC2)c(F)c1", "ERα in MCF7 cells (Homo sapiens (Human))", 0.60),
    ("Oc1ccc2c(c1)SCCC(c1cccc(F)c1Cl)=C2c1ccc(O[C@H]2CCN(CCCF)C2)cc1", "ERα in MCF7 cells (Homo sapiens (Human))", -0.15),
    ("Oc1cccc(C2=C(c3ccc(O[C@H]4CCN(CCCF)C4)cc3)c3ccc(O)cc3SCC2)c1", "ERα in MCF7 cells (Homo sapiens (Human))", -0.70),
    ("Cc1ccc(C2=C(c3ccc(O[C@H]4CCN(CCCF)C4)cc3)c3ccc(O)cc3[S+]([O-])C2)c(F)c1 (single isomer, unassigned) [Example 70]", "ERα in MCF7 cells (Homo sapiens (Human))", 1.40),
    ("CCOc1ccc(C2=C(c3ccc(O[C@H]4CCN(CCCF)C4)cc3)c3ccc(O)cc3SCC2)c(F)c1F", "ERα in MCF7 cells (Homo sapiens (Human))", -0.70),
    ("CCOc1ccc(C2=C(c3ccc(O[C@H]4CCN(CCCF)C4)cc3)c3ccc(O)cc3SCC2)c(F)n1", "ERα in MCF7 cells (Homo sapiens (Human))", -0.30),
    ("CC(C)Oc1ccc(C2=C(c3ccc(O[C@H]4CCN(CCCF)C4)cc3)c3ccc(O)cc3OCC2)c(C(F)(F)F)c1.Cl [Example 150, hydrochloride]", "ERα in MCF7 cells (Homo sapiens (Human))", 0.60),
    ("Oc1ccc2c(c1F)OCCC(c1ccc3c(c1)NCC3)=C2c1ccc(O[C@H]2CCN(CCCF)C2)cc1", "ERα in MCF7 cells (Homo sapiens (Human))", 0.30),
]
